Recorded log10 of IC50 for the following compounds
Molecular target: wild-type Androgen Receptor (AR-wt) (Homo sapiens (Human))
Sequence (P10275 whole entry): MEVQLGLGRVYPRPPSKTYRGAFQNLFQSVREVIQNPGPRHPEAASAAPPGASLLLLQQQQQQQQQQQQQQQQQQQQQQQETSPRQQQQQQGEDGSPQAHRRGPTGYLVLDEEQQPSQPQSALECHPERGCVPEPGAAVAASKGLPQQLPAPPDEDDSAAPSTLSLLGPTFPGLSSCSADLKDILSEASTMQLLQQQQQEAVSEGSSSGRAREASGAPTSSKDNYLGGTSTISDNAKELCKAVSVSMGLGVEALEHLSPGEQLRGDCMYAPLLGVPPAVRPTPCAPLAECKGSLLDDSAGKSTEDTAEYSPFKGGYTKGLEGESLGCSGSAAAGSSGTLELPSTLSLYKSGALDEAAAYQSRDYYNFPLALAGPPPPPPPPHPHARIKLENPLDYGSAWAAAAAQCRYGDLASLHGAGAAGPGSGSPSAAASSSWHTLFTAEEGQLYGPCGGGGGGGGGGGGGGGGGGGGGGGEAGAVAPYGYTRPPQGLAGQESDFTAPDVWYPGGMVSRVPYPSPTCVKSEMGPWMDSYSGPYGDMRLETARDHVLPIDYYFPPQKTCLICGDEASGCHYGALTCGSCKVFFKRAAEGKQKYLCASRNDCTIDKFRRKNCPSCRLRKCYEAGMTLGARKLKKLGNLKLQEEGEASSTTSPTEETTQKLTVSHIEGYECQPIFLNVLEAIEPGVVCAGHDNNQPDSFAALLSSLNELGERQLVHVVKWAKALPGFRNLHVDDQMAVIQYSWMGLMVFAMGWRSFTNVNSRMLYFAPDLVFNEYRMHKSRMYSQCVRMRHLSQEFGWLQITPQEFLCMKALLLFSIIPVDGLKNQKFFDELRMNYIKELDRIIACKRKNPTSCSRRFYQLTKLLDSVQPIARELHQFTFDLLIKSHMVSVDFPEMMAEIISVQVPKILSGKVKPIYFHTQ
Assay: LNCaP-AR-wt ANT reporter assay (antagonist mode)
Assay type: cell-based
Conditions: antagonist mode; pIC50 = −Log10(IC50 in Molar); read-out: LNCaP-AR-wt ANT pIC50 (converted)
All values: log10 IC50 [nM].

Here is how some compounds turned out for log10 of IC50.
CN1CC[C@H](CNC(=O)c2ccc(N3C(=S)N(c4cnc(C#N)c(C(F)(F)F)c4)C(=O)C34CCC4)cc2F)C1 [Cpd 218]: 3.07
COc1cc(N2C(=O)C3(CCC3)N(c3ccc(OC4CCNCC4)cc3)C2=S)cnc1C#N [Cpd 154]: 2.67
N#Cc1ncc(N2C(=O)C3(CCC3)N(c3ccc(OC4C5CCC4CNC5)cc3)C2=S)cc1C(F)(F)F (stereo not drawn) [Cpd 138]: 2.63
COc1cc(N2C(=S)N(c3cnc(C#N)c(C)c3)C(=O)C23CCC3)ccc1-c1ccc(C)o1 [Cpd 5]: 2.83
N#Cc1ncc(N2C(=O)C3(CCC3)N(c3ccc(CN4CCNCC4)cc3)C2=S)cc1Cl [Cpd 207]: 2.61

[Q] API: value(readout= log10 of IC50, system= wild-type Androgen Receptor (AR-wt) (Homo sapiens (Human)), query= CC(C)(C)OC(=O)NC1C(C)(C)C(Oc2ccc(N3C(=S)N(c4cnc(C#N)c(C(F)(F)F)c4)C(=O)C34CCC4)cc2)C1(C)C (stereo not drawn) [Cpd 110] )
[A] 2.12

[Q] API: value(readout= log10 of IC50, system= wild-type Androgen Receptor (AR-wt) (Homo sapiens (Human)), query= CNC(=O)N1CCN(Cc2ccc(N3C(=S)N(c4cnc(C#N)c(C(F)(F)F)c4)C(=O)C34CCC4)cc2)CC1 [Cpd 53] )
[A] 2.09

[Q] API: value(readout= log10 of IC50, system= wild-type Androgen Receptor (AR-wt) (Homo sapiens (Human)), query= CC(=O)N1CCC(n2ncc3cc(N4C(=S)N(c5cnc(C#N)c(C(F)(F)F)c5)C(=O)C45CCC5)ccc32)CC1 [Cpd 131] )
[A] 2.77

[Q] API: value(readout= log10 of IC50, system= wild-type Androgen Receptor (AR-wt) (Homo sapiens (Human)), query= COc1cc(N2C(=O)C3(CCC3)N(c3ccc(OC4CCNCC4)nc3)C2=S)cnc1C#N [Cpd 75] )
[A] 2.17

[Q] API: value(readout= log10 of IC50, system= wild-type Androgen Receptor (AR-wt) (Homo sapiens (Human)), query= CN1CCC(Oc2ccc(N3C(=S)N(c4cnc(C#N)c(C(F)F)c4)C(=O)C34CCC4)cc2)CC1 [Cpd 41] )
[A] 2.63
